Below, each of the molecules is paired with its reported GI50 value.
Tested on: MDA-MB-231
Assay: NCI tumour cell line growth inhibition, 48 h
The source made the active and inactive calls. Rule as the data show it: active = GI50 up to about 1.1 µM and inactive = higher.

Illustrative cases are given below, each with its answer.
1. OC(Cc1cc(CC(O)(C(F)(F)F)C(F)(F)F)nc(CC(O)(C(F)(F)F)C(F)(F)F)c1)(C(F)(F)F)C(F)(F)F	1.92 µM (inactive)
2. Clc1ccc(NCNC2Nc3ccccc3N2)cc1Cl	16.7 µM (inactive)
3. COc1cc(C(C)=O)cc(C(=O)N(C(C)C)C(C)C)c1[Si](C)(C)C	> 100 µM (inactive)
4. Nc1nc(F)nc2c1ncn2C1OC(COP(=O)(O)O)C(O)C1O (stereo not given)	80.2 µM (inactive)
5. Clc1ccc2c(NCCCC/N=C/c3ccccc3)ccnc2c1	13.6 µM (inactive)

GET /value?item= `CC(=O)OCc1cc(=O)n2c([nH]c3ccccc32)c1C#N` &field=GI50 returns 48.4 µM (inactive)

GET /value?item= C=C1C(=O)O[C@H]2C1C[C@H](O)/C(C)=C/CC[C@@]1(C)O[C@H]21 (stereo not given in full) &field=GI50 returns 18.9 µM (inactive)

Per the record, CCOC(=O)N1CCC2C(=C(C)C(C)C3=C2C(=O)c2ccccc2C3=O)C1 (stereo not given) has GI50 of 4.07 µM (inactive)

Consider `Cc1ccc(/C=C/C(=O)Oc2ccc(/C=C3\CCC/C(=C\c4ccc(OC(=O)/C=C/c5ccc(C)cc5)cc4)C3=O)cc2)cc1` . Its measured GI50 is 28.8 µM (inactive)

Looking up `CC1(C)O[C@@H]2COC(=O)[C@@H]2O1` , I found its GI50 recorded as > 100 µM (inactive)

* * *

Tested on: DMS-273
Assay: NCI tumour cell line growth inhibition, 48 h
Activity calls are given as the source filed them. Cut-off read from the data, not from the text of the source: active = GI50 up to about 1.1 µM and inactive = higher.
Quantity Name: GI50

Previously resolved entries follow.
1. CN(C)[C@H]1CC[C@H]2[C@@H]3CCC4C[C@@H](NC(=O)NC(Cc5ccccc5)c5nccs5)CC[C@]4(C)[C@H]3CC[C@]12C (some centres undefined)	1.94 µM (inactive)
2. O=S1(=O)c2ccccc2N=C(c2ccccc2Cl)CC1c1ccc(F)cc1 (centres undefined)	22.3 µM (inactive)

Kindly note the recorded GI50 for [N-]=[N+]=NC(c1cn(C2CC(O)C(CO)O2)c(=O)[nH]c1=O)C(I)I (centres undefined) , which is > 100 µM (inactive)

For record CC(=O)NC1=C(C)C(=O)c2c(nc3n2CCC3OC(=O)CCl)C1=O (centres undefined) the listed GI50 is 17.2 µM (inactive)

Recorded result, CC([C@H]1CCC2C3CCC4CC5(CC[C@]4(C)C3CC[C@@]21C)c1ccccc1C(=O)N5C)N(C)C (some centres undefined) , GI50: 12.9 µM (inactive)

Recorded result, CC(c1ccccc1)N1CC(C)(c2ccccc2)N(O)C(c2ccccc2)C1C (centres undefined) , GI50: 7.93 µM (inactive)

Recorded GI50 (compound `O=C(O)/C(Cl)=C(/Cl)C(=O)Nc1cccc(Cl)c1` ): 12.9 µM (inactive)

Note to self: GI50 recorded for `Cc1cccc(-c2nnc(S)[nH]2)c1` was > 100 µM (inactive)

Entry under test: COC(=O)C1CCC2(C)[C@H](CCC3O[C@]32C)[C@@]1(C)CC(=O)c1ccoc1 (some centres undefined) . Its GI50 was > 100 µM (inactive)

* * *

System: RPMI-8226
Experiment: NCI tumour cell line growth inhibition, 48 h
Activity calls are given as the source filed them. Cut-off read from the data, not from the text of the source: active = GI50 up to about 1.1 µM and inactive = higher.
Reported GI50 values follow for various compounds

Some solved entries appear below for comparison.
1) O=C(O)C1CCCCN1CCc1c[nH]c2ccccc12 (configuration not stated)	> 100 µM (inactive)
2) Cc1ccccc1-c1nc2c(N)nc(N)nc2nc1N	> 100 µM (inactive)
3) CN(C)CCCN1c2ccccc2Sc2ccc3ccccc3c21	2.48 µM (inactive)
4) CCCCCCCCCCCCOP(=O)(O)OCC(N)C(=O)O (configuration not stated)	24.7 µM (inactive)
5) ON[C@@H]1C=C[C@H](n2cnc3c(NC4CC4)ncnc32)C1	> 100 µM (inactive)
6) CCOC(=O)c1cc(C)nc2c1c(=O)n(-c1ccccc1)c(=O)n2CCCCN1CCN(c2ccccc2)CC1	15.7 µM (inactive)

So, `COc1ccccc1-n1cnc2c1=NC(C)(C)NC=2C(N)=O` ? Its GI50 was > 100 µM (inactive)

response.value for CC1=CC(=O)[C@@H](O)[C@]2(C)[C@H]3[C@@]4(O)OC[C@@]35[C@@H](C[C@@H]12)OC(=O)C(OC(=O)CC1=CCCC1)[C@H]5[C@@H](C)[C@H]4O (some centres not stated) (field: GI50) = < 0.0124 µM (active)

The reported value for `CC(C)[C@@H]1NC(=O)[C@H]2N=C(O[C@@H]2C)[C@@H]2CCCN2C(=O)[C@H](Cc2ccccc2)NC(=O)[C@@H]2CSC(=N2)[C@@H](Cc2ccccc2)NC(=O)[C@@H]2CSC1=N2` in terms of GI50 is 9.29 µM (inactive)

// sample `CSc1nn(C)cc2nc(C)nc1-2` , its GI50 was > 100 µM (inactive)

The reported value for `Cc1cccc2c(N)c3cccc(C(=O)NCC[N+](C)(C)[O-])c3nc12` in terms of GI50 is 9.44 µM (inactive)

Lab note: measured GI50 of `CN(C)C(=N)NC(N)=S` was > 100 µM (inactive)

So, CC1(c2cccc(C(F)(F)F)c2)CC(c2cccc(C(F)(F)F)c2)=C(C#N)C(=C(C#N)C#N)N1 (configuration not stated) ? Its GI50 was 16.4 µM (inactive)

// `Cc1noc(C)c1C1=CCCCc2ccccc21` : GI50 value = 25.9 µM (inactive)

Looking up `COc1nc(C)nc2sc3c(c12)CCCC3` , I found its GI50 recorded as 55.3 µM (inactive)

* * *

The entries below are paired with their reported GI50.
System: DLD-1
Assay: NCI tumour cell line growth inhibition, 48 h
Activity calls are given as the source filed them. Cut-off read from the data, not from the text of the source: active = GI50 up to about 1.1 µM and inactive = higher.

1) CCCCCC1CC=CC(NC(=O)OCc2ccccc2)C1/C=C/CCCC1OCCO1 (stereo not given)	> 66.5 µM (inactive)

Record summary for COC(=O)C(=O)C(C(=O)Nc1cccc(C)c1C)C1Sc2ccccc2NC1=O (stereo not given) : reported GI50 = 11.2 µM (inactive)

// field: GI50; key: CCCCCCC1=NOC(C(c2cc[nH]c2)N(C)[C@H](C(=O)OC)C(C)C)C1 (stereo not given in full) ; value = 34.1 µM (inactive)

GI50 in this record for `CN(C)C(=N)NC(N)=S` : > 100 µM (inactive)

Documented GI50 of `CCOCc1cc(=O)c2c(O)cc3c(c2o1)CCC(C)(C)O3` : > 100 µM (inactive)

# GI50 of `CN(C)CCNC(=O)c1ccc(Cl)c2ccc(-c3ccccc3)nc12` = 2.92 µM (inactive)

The reported value for CCOC(OC1=C(C#N)CCC1)C(CC)[Se]c1ccccc1 (stereo not given) in terms of GI50 is 19.6 µM (inactive)

Entry CC(=O)NC1=C(C)C(=O)c2c(nc3n2CCC3OC(=O)CCl)C1=O (stereo not given) ; GI50 = 12.9 µM (inactive)

The compound listed as `C[C@H](C(=O)O)C(=O)NC(=O)N(Cc1ccccc1)N=O` shows GI50 equal to > 100 µM (inactive)

Recorded result, COC(=O)C1CC(=O)O[C@H]1c1ccc(OC)c(OC)c1 (stereo not given in full) , GI50: > 100 µM (inactive)

Lookup result for `CCOC(=O)c1nc2ccc(OC)cc2c2c1Cc1ccccc1-2` ; measured GI50: > 100 µM (inactive)

Measured GI50 of COC(=O)C1CCC2(C)[C@H](CCC3O[C@]32C)[C@@]1(C)CC(=O)c1ccoc1 (stereo not given in full) : > 100 µM (inactive)

Record summary for Nc1nc(SCc2ccc([N+](=O)[O-])cc2)nc2c1ncn2C1OC(CO)C(O)C1O (stereo not given) : reported GI50 = > 100 µM (inactive)

# compound `O/N=C/c1cc2c(cc1Br)OCO2` ; its GI50 = > 100 µM (inactive)

GET /value?item= CCN(CC)CC(=O)NC1c2ccccc2Oc2c(C)cccc21 (stereo not given) &field=GI50 returns 81.3 µM (inactive)

* * *

Tested on: SW-620
Test: NCI tumour cell line growth inhibition, 48 h
Activity calls are given as the source filed them. Cut-off read from the data, not from the text of the source: active = GI50 up to about 1.1 µM and inactive = higher.
Output constraint: value belongs to 1 = active, 0 = inactive

The examples below pair each entry with its known result.
1. COCC1N=C(c2cc(OC)c(OC)c(OC)c2-c2cc3c(cc2[C@@H](C)O)OCO3)O[C@H]1c1ccccc1 (stereo partly specified)	0
2. Cc1cc2c(=O)cc(-c3ccc(C(F)(F)F)cc3)oc2c(C(=O)O)c1C	0
3. O=C(O)c1ccccc1SCc1cccc2c(=O)c3ccc(Cl)cc3oc12	0
4. CC1(C)O[C@@H]2COC(=O)[C@@H]2O1	0
5. C=C1CCC(CC[C@@H]2CC[C@]3(OC2)O[C@@]2(O)CC[C@]3(C)OC2(C)C)C(C)(C)[C@H]1C/C=C1/C(=O)OC[C@@H]1O (stereo partly specified)	0

Now look at this entry.
Prompt: Hi, do you know how COC(=O)C1CC(=O)O[C@H]1c1ccc(OC)c(OC)c1 (stereo partly specified) came out in this test?
Response: 0
